Where do these numbers come from? They come from ChEMBL document CHEMBL4689842.

Test system: Fibroblast
Assay: Incucyte cell viability with human fibroblast; note: filed as whole numbers so only -1 and 0 and 1 occur
Type: toxicity, cell-based
Settings: 24 h, 10 µM, compound concentration 10 uM, replicate number 2, timepoint 24 hours
Attribute: Growth Rate
readout.name: Growth Rate

> print(dat)
                                   compound  result.value
1  N#Cc1cccc(C(=O)Nc2cc(-c3ccccc3)nn2-c2ccccc2)c1             1
2  CC(/C=C1\SC(=S)N(CCCC(=O)Nc2ccc(C(=O)O)c(O)c2)C1=O)=C\c1ccccc1             0
3  CCN1CCC[C@H]1CNC(=O)c1c(OC)ccc(Br)c1OC [REMOXIPRIDE]             0
4  Cc1cc(OCC(=O)O)cc(C)c1Cc1ccc(O)c(C(C)C)c1 [SOBETIROME]             1
5  C[C@@H](NC(=O)Nc1cc2[nH]ncc2c(CO)n1)c1ccccc1 [ERKi]             1
6  COc1cc(N2CCC(O)CC2)ccc1Nc1cc(Nc2ccccc2S(=O)(=O)C(C)C)c2cc[nH]c2n1             1
7  C=CC(=O)Nc1cc(-n2c(=O)ccc3cnc4ccc(-c5ccc(NS(C)(=O)=O)cc5)cc4c32)ccc1C             0
8  CC(C)(O)c1cncc(-c2nc3ccc(F)cc3n2C2CC2)c1 [MSD-CYP11B2]             1
9  CN(c1cc(C(F)(F)F)nc(OCCC(=O)O)n1)c1cccc2c1CCC2             1

###

System: Fibroblast
Assay: Multiplex assay against human fibroblast
Type: toxicity, cell-based
Conditions: 24 h, 1 µM, compound concentration 1 uM, replicate 2
Attribute: Population Healthy Nuclei (%)
readout.name: Population Healthy Nuclei (%)

> print(dat)
                                   compound  result.value
1  NC(=O)c1ccc2nc(-c3ccc(C4(N)CCC4)cc3)c(-c3ccccc3)n2n1 [BAY-1125976]            22
2  N#CCNC(=O)c1ccc(-c2ccnc(Nc3ccc(N4CCOCC4)cc3)n2)cc1 [MOMELOTINIB]            86
3  CCOC(=O)CCNc1cc(N2CCc3ccccc3CC2)nc(-c2ccccn2)n1            34
4  Cc1c(P(=S)(c2ccccc2)c2ccccc2)n2ccccc2[n+]1C/C=C/c1ccccc1.[Br-]            40
5  CN1C(=O)[C@@H](NC(=O)c2cc3ccccc3[nH]2)N=C(c2ccccc2)c2ccccc21 [DEVAZEPIDE]            82
6  Cl.NC[C@@H]1O[C@H](C23CC4CC(CC(C4)C2)C3)Cc2c1ccc(O)c2O            85
7  CC(Cc1ccc(O)c(O)c1)C(C)Cc1ccc(O)c(O)c1 (stereo not drawn) [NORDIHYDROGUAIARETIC ACID]            94
8  C[C@@H](Oc1cc(-n2cnc3ccc(CN4CCN(C)CC4)cc32)sc1C(N)=O)c1ccccc1C(F)(F)F [GSK-461364]            68

###

Attribute: Population Mitochondria Different-Phenotype (%)
System: U2OS
Assay: Multiplex assay against U2OS
Format: toxicity, cell-based
Conditions: human, 48 h, 1 µM, compound concentration 1 uM, replicate 2
readout.name: Population Mitochondria Different-Phenotype (%)

> print(dat)
                                   compound  target.under.test  result.value
1  CC(Cc1ccc(O)c(O)c1)C(C)Cc1ccc(O)c(O)c1 (centres undefined) [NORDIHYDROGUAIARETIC ACID]               U2OS             9
2  CC(/C=C1\SC(=S)N(CCCC(=O)Nc2ccc(C(=O)O)c(O)c2)C1=O)=C\c1ccccc1               U2OS            14
3  Cc1ccc(S(=O)(=O)NC2c3ccccc3Oc3ccccc32)cc1               U2OS            18
4  N#CCNC(=O)c1ccc(-c2ccnc(Nc3ccc(N4CCOCC4)cc3)n2)cc1 [MOMELOTINIB]               U2OS            17
5  CN1C(=O)[C@@H](NC(=O)c2cc3ccccc3[nH]2)N=C(c2ccccc2)c2ccccc21 [DEVAZEPIDE]               U2OS            18
6  CCCCN(CC)c1nc(C)nc2c1c(C)cn2-c1c(C)cc(C)cc1C.Cl               U2OS            14
7  CN(c1cc(C(F)(F)F)nc(OCCC(=O)O)n1)c1cccc2c1CCC2               U2OS            15
8  CCCCCNC(=N)N/N=C/c1c[nH]c2ccc(OC)cc12.O=C(O)/C=C\C(=O)O [TEGASEROD MALEATE]               U2OS            17
9  N#Cc1cccc(C(=O)Nc2cc(-c3ccccc3)nn2-c2ccccc2)c1               U2OS            13

###

Attribute: Population Mitochondria Different-Phenotype (%)
Tested on: U2OS
Assay: Multiplex assay against U2OS
Format: toxicity, cell-based
Details: human, 48 h, 1 µM, compound concentration 1 uM, replicate 1
readout.name: Population Mitochondria Different-Phenotype (%)

> print(dat)
                                   compound  unit.abbrev  result.value
1  Oc1cccc(-c2nc(N3CCOCC3)c3oc4ncccc4c3n2)c1            %             6
2  Cl.NC[C@@H]1O[C@H](C23CC4CC(CC(C4)C2)C3)Cc2c1ccc(O)c2O            %            14
3  Cc1c(P(=S)(c2ccccc2)c2ccccc2)n2ccccc2[n+]1C/C=C/c1ccccc1.[Br-]            %            13
4  CN1C(=O)[C@@H](NC(=O)c2cc3ccccc3[nH]2)N=C(c2ccccc2)c2ccccc21 [DEVAZEPIDE]            %            14
5  C[C@@H](Oc1cc(-n2cnc3ccc(CN4CCN(C)CC4)cc32)sc1C(N)=O)c1ccccc1C(F)(F)F            %            57
6  CC(C)c1cc(Nc2nc(N3CCC[C@H](N)C3)ncc2C(N)=O)cc(C(C)C)n1            %            83
7  C=CC(=O)Nc1cc(-n2c(=O)ccc3cnc4ccc(-c5ccc(NS(C)(=O)=O)cc5)cc4c32)ccc1C            %            14

###

Test system: Fibroblast
Test: Multiplex assay against human fibroblast
Format: toxicity, cell-based
Settings: 48 h, 1 µM, compound concentration 1 uM, replicate 2
Param label: returns fulfilled when Total Cell Count < 100, returns not fulfilled otherwise, including exact equality.

> print(dat)
                                   molecule  category.label
1  Cc1c(P(=S)(c2ccccc2)c2ccccc2)n2ccccc2[n+]1C/C=C/c1ccccc1.[Br-]   not fulfilled
2  CC(C)[C@H](CO)Nc1nc(Nc2cccc(Cl)c2)c2ncn(C(C)C)c2n1 [PURVALANOLA]       fulfilled
3  CCCCCNC(=N)N/N=C/c1c[nH]c2ccc(OC)cc12.O=C(O)/C=C\C(=O)O [TEGASEROD MALEATE]       fulfilled
4  Oc1cccc(-c2nc(N3CCOCC3)c3oc4ncccc4c3n2)c1 [PI-103]   not fulfilled
5  CN1C(=O)[C@@H](NC(=O)c2cc3ccccc3[nH]2)N=C(c2ccccc2)c2ccccc21 [DEVAZEPIDE]   not fulfilled
6  CC(Cc1ccc(O)c(O)c1)C(C)Cc1ccc(O)c(O)c1 (stereo not drawn) [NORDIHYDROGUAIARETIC ACID]       fulfilled
7  CC(/C=C1\SC(=S)N(CCCC(=O)Nc2ccc(C(=O)O)c(O)c2)C1=O)=C\c1ccccc1   not fulfilled
8  Cl.NC[C@@H]1O[C@H](C23CC4CC(CC(C4)C2)C3)Cc2c1ccc(O)c2O   not fulfilled

###

Attribute: Population Mitochondria Different-Phenotype (%)
System: Fibroblast
Assay: Multiplex assay against human fibroblast
Assay type: toxicity, cell-based
Details: 24 h, 10 µM, compound concentration 10 uM, replicate 2
readout.name: Population Mitochondria Different-Phenotype (%)

> print(dat)
                                    compound  target.under.test  unit.abbrev  result.value
 1  CC(C)c1cc(Nc2nc(N3CCC[C@H](N)C3)ncc2C(N)=O)cc(C(C)C)n1         Fibroblast            %            90
 2  CC[C@H](Nc1ncnc2[nH]cnc12)c1nc2cccc(F)c2c(=O)n1-c1ccccc1 [IDELALISIB]         Fibroblast            %             6
 3  c1ccc(-c2oc3ncnc(NC[C@@H]4CCCO4)c3c2-c2ccccc2)cc1         Fibroblast            %            56
 4  CCOc1ccn(-c2ccc(F)cc2)c(=O)c1C(=O)Nc1ccc(Oc2ccnc(N)c2Cl)c(F)c1 [BMS-777607]         Fibroblast            %            10
 5  Cl.Cn1c2c(c3ccc(Cl)c(Cl)c31)C(C#N)C1(CCNCC1)NC2=O (configuration not stated)         Fibroblast            %            14
 6  CCOC(=O)CCNc1cc(N2CCc3ccccc3CC2)nc(-c2ccccn2)n1         Fibroblast            %            11
 7  N#CCNC(=O)c1ccc(-c2ccnc(Nc3ccc(N4CCOCC4)cc3)n2)cc1 [MOMELOTINIB]         Fibroblast            %            34
 8  CC(/C=C1\SC(=S)N(CCCC(=O)Nc2ccc(C(=O)O)c(O)c2)C1=O)=C\c1ccccc1         Fibroblast            %            14
 9  N#Cc1cccc(C(=O)Nc2cc(-c3ccccc3)nn2-c2ccccc2)c1         Fibroblast            %            71
10  Oc1cccc(-c2nc(N3CCOCC3)c3oc4ncccc4c3n2)c1 [PI-103]         Fibroblast            %            75
11  COc1ccccc1-c1cc(Nc2cccc(CS(N)(=O)=O)c2)ncn1         Fibroblast            %             0
12  CCCCCNC(=N)N/N=C/c1c[nH]c2ccc(OC)cc12.O=C(O)/C=C\C(=O)O [TEGASEROD MALEATE]         Fibroblast            %           100
13  CC[C@@]1(O)C(=O)OCc2c1cc1n(c2=O)Cc2cc3ccccc3nc2-1 [CAMPTOTHECIN]         Fibroblast            %             0
14  CC(Cc1ccc(O)c(O)c1)C(C)Cc1ccc(O)c(O)c1 (configuration not stated) [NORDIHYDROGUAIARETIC ACID]         Fibroblast            %             9
15  Cc1ccc(S(=O)(=O)NC2c3ccccc3Oc3ccccc32)cc1         Fibroblast            %            14
16  Cl.NC[C@@H]1O[C@H](C23CC4CC(CC(C4)C2)C3)Cc2c1ccc(O)c2O         Fibroblast            %            26
